test-target: PIK3CA (human) (UniProt P42336)
Sequence (P42336 whole entry, looked up): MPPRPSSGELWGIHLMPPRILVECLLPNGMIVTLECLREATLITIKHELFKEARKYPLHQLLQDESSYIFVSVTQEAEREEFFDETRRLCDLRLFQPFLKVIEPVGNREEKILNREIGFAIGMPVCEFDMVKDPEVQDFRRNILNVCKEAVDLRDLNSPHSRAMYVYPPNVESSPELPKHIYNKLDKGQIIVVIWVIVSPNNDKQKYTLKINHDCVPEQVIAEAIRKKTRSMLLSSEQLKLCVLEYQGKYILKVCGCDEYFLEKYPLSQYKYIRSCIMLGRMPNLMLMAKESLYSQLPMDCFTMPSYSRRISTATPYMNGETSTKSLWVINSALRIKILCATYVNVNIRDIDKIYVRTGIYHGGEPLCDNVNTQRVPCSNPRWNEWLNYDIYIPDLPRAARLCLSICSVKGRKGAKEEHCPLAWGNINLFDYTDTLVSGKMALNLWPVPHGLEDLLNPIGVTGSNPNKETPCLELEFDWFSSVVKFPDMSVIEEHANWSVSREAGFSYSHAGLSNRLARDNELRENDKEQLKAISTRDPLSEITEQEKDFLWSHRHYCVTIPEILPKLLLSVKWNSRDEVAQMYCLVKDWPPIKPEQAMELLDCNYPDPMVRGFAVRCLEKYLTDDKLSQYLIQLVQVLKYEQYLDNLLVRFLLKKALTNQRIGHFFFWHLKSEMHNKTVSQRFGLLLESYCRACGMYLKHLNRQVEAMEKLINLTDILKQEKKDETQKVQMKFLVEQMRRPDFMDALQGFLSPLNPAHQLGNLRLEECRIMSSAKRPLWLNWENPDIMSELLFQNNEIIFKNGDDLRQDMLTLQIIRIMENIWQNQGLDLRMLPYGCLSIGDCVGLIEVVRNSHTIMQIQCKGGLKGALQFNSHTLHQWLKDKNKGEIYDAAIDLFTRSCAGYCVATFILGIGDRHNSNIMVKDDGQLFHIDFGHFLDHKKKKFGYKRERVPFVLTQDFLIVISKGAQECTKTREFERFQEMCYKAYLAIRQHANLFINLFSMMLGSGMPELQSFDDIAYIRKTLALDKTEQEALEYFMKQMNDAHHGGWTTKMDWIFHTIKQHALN
pIC50: −log10 of the molar value.
measurement-label: pIC50

molecule=CN1CCN(S(=O)(=O)c2cc(-c3ccc4c(c3)CN(c3ncnc5c3CC(C)(C)CC5)CCO4)cnc2N)CC1 data_value="6.60 to 7.30"

Given the entry COC(=O)Nc1nc2ccc(-c3ccc4c(c3)CN(c3ccnc5ccccc35)CCO4)cc2n1C , what pIC50 was observed with PIK3CA (human) (UniProt P42336)?
6.00 to 6.60

Given the entry CC1=Cc2ncnc(N3CCOc4ccc(-c5cnc(N)c(S(=O)(=O)NCC6CCN(C)CC6)c5)cc4C3)c2CC1(C)C , what pIC50 was observed with PIK3CA (human) (UniProt P42336)?
6.60 to 7.30

====

test-target: PIK3CA (human) (UniProt P42336)
pIC50: −log10 of the molar value.
The entries below come with measured pIC50 values attached.

Solved cases below.
compound=CC1(C)CCc2ncnc(N3CCOc4ccc(-c5cnc(N)c(S(=O)(=O)N6CC[C@@H](N)C6)c5)cc4C3)c2C1 test_target="PIK3CA (human) (UniProt P42336)" measurement_label=pIC50 data_value="7.30 to 8.00"
compound="Cc1nc2cc(-c3ccc4c(c3)CN(c3nc(C(C)N)nc5c3CC(C)(C)CC5)CCO4)ccc2[nH]1 (centres undefined)" test_target="PIK3CA (human) (UniProt P42336)" measurement_label=pIC50 data_value="7.30 to 8.00"
compound=Cc1nc2ccc(-c3ccc4c(c3)CN(c3ncnc5ccc(F)cc35)CCO4)cc2[nH]1 test_target="PIK3CA (human) (UniProt P42336)" measurement_label=pIC50 data_value="6.60 to 7.30"
compound=Cc1nc2c(C)cc(-c3ccc4c(c3)CN(c3ncnc5cccnc35)CCO4)cc2[nH]1 test_target="PIK3CA (human) (UniProt P42336)" measurement_label=pIC50 data_value="6.60 to 7.30"
compound=COCCc1c(C)nc(CN(C)C)nc1N1CCOc2ccc(-c3ccc4nc(C)[nH]c4c3)cc2C1 test_target="PIK3CA (human) (UniProt P42336)" measurement_label=pIC50 data_value="≥ 8.00"
compound=Cc1nc2c(c(N3CCOc4ccc(-c5cnc(N)c(S(=O)(=O)NCC6CCN(C)CC6)c5)cc4C3)n1)CC(C)(C)CC2 test_target="PIK3CA (human) (UniProt P42336)" measurement_label=pIC50 data_value="6.60 to 7.30"
compound=CN(C)Cc1nc2c(c(N3CCOc4ccc(-c5ccc(Cl)c(C(N)=O)c5)cc4C3)n1)CC(C)(C)CC2 test_target="PIK3CA (human) (UniProt P42336)" measurement_label=pIC50 data_value="6.00 to 6.60"
compound=CCc1nc2cc(-c3ccc4c(c3)CN(c3ncnc5c3CC(C)(C)CC5)CCO4)cnc2[nH]1 test_target="PIK3CA (human) (UniProt P42336)" measurement_label=pIC50 data_value="7.30 to 8.00"
compound=Cc1nc2c(c(N3CCOc4ccc(-c5cnc6sc(N)nc6c5)cc4C3)n1)CC(C)(C)CC2 test_target="PIK3CA (human) (UniProt P42336)" measurement_label=pIC50 data_value="7.30 to 8.00"
compound=CC1(C)CCc2nc(CO)nc(N3CCOc4ccc(-c5cnc6sc(N)nc6c5)cc4C3)c2C1 test_target="PIK3CA (human) (UniProt P42336)" measurement_label=pIC50 data_value="≥ 8.00"

Given the entry CC1(C)CCc2ncnc(N3CCOc4ccc(-c5cnc(N)c(S(=O)(=O)CC(O)CO)c5)cc4C3)c2C1 (centres undefined) , what pIC50 was observed with PIK3CA (human) (UniProt P42336)?
7.30 to 8.00

Given the entry Cc1ncnc(N2CCOc3ccc(-c4ccc5nc(N)cn5c4)cc3C2)c1Cc1ccc(F)cc1 , what pIC50 was observed with PIK3CA (human) (UniProt P42336)?
7.30 to 8.00

Given the entry CC1(C)C=Cc2ncnc(N3CCOc4ccc(-c5cnc(N)c(S(=O)(=O)N6CC[C@@H](N)C6)c5)cc4C3)c2C1 , what pIC50 was observed with PIK3CA (human) (UniProt P42336)?
7.30 to 8.00

Given the entry Cc1ncnc(N2CCOc3ccc(-c4ccc(N)nn4)cc3C2)c1Cc1ccc(F)cc1 , what pIC50 was observed with PIK3CA (human) (UniProt P42336)?
6.00 to 6.60
